ASSAYED_SYSTEM: GSK3β (Homo sapiens, UniProt P49841)
Sequence (P49841 whole entry, species assumed): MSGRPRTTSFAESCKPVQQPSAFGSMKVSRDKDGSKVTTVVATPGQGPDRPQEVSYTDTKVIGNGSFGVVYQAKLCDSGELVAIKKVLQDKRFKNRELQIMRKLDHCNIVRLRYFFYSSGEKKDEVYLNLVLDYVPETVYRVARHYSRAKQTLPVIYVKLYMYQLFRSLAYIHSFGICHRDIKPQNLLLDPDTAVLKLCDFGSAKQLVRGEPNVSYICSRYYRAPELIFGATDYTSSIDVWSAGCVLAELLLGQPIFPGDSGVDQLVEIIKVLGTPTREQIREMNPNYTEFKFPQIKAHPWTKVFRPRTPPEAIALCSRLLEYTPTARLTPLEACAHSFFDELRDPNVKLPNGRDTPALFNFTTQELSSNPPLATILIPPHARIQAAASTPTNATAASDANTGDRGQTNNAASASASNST
TEST: GSK3β kinase assay (Caliper LabChip, fluoresceinated peptide substrate)
Assay type: biochemical
CONDITION_LABEL: first value of the cell; 250 pM enzyme, 20 uM ATP, 20 hours at room temperature; read-out: GSK3β/α (nM): GSK3β IC50
Listing of entries alongside the reported log10 of IC50.
Log scale reminder: IC50 in nM, then log10 taken.

// worked examples, log10 of IC50 included
Suppose we examine the molecule CC(O)c1c(NC(=O)c2ccnc(Nc3ccc(C(F)(F)F)cn3)c2)cnn1C (centres unmarked) [Example 208] ; what log10 of IC50 value has been reported? 0.48

Suppose we examine the molecule O=C(Nc1cncc(-c2ccccc2Cl)c1)c1ccnc(Nc2ccc(C(F)(F)F)cn2)c1 [Example 128] ; what log10 of IC50 value has been reported? 1.08

Suppose we examine the molecule O=C(Nc1cnc(Cl)cc1C(O)C1CC1)c1ccnc(Nc2ccc(C(F)(F)F)cn2)c1 (centres unmarked) [Example 93] ; what log10 of IC50 value has been reported? 0.41

Suppose we examine the molecule O=C(Nc1cncc(-c2ccccc2F)c1)c1ccnc(Nc2cccc(F)n2)c1 [Example 136] ; what log10 of IC50 value has been reported? 1.04

Suppose we examine the molecule CC1(c2cnncc2NC(=O)c2ccnc(Nc3ccc(C(F)(F)F)cn3)c2)OCCO1 [Example 200] ; what log10 of IC50 value has been reported? -0.21

Suppose we examine the molecule O=C(Nc1cnc(F)cc1N1CCOCC1)c1ccnc(Nc2ccc(C(F)(F)F)cn2)c1 [Example 73] ; what log10 of IC50 value has been reported? 0.00

Suppose we examine the molecule CC(C)(C)S(=O)(=O)c1ccncc1NC(=O)c1ccnc(Nc2ccc(C(F)(F)F)cn2)c1 [Example 187] ; what log10 of IC50 value has been reported? -0.40

Suppose we examine the molecule O=C(Nc1cnc2cccnn12)c1ccnc(Nc2ccc(C(F)(F)F)cn2)c1 [Example 210] ; what log10 of IC50 value has been reported? 1.52

Suppose we examine the molecule N#Cc1cnn(-c2cncc(NC(=O)c3ccnc(Nc4cccc(C(F)(F)F)n4)c3)c2)c1 [Example 122] ; what log10 of IC50 value has been reported? 0.84

Suppose we examine the molecule C=CCOc1ccc(-c2cnncc2NC(=O)c2ccnc(Nc3ccc(C(F)(F)F)cn3)c2)cc1 [Example 199] ; what log10 of IC50 value has been reported? 0.94

# input for lookup
Suppose we examine the molecule N#Cc1cnn(-c2cncc(NC(=O)c3ccnc(Nc4ccc(C(F)(F)F)cn4)c3)c2)c1 [Example 118] ; what log10 of IC50 value has been reported? 0.86
